- assayed_system: T1, human programmed cell death protein 1 (hPD-1) C93S (aa 24-167) (Homo sapiens, UniProt Q15116, C93S)
- T1 construct: made as a fusion with a TEV site and human Fc; the Fc was cut off with TEV protease; source: Expi293F, purified (Protein A, TEV cleavage of Fc, SEC; monomer fractions); not shown: Fc (human), C-terminal, cleaved
- T1 sequence (Q15116 24-167 C93S): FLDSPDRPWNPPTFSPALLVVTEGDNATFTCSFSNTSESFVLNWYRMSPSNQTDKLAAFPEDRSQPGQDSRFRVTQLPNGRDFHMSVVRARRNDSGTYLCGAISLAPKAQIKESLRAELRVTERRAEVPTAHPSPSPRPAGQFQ
- test_description: SPR; Carterra LSA; Fab from the ammonium sulfate precipitate of the culture supernatant immobilised on a NiHC200M chip; hPD-1 (1-1024 nM) or mPD-1-Fc (4-1024 nM) as analyte, fourfold dilution series, no regeneration; HBS-EP pH 7.4, 25 °C; medians over the spots of a construct, KD = koff/kon
- experimental_context: one partner purified
endpoint_label: Kd

{"binder": "toripalimab Fab L.V99P (Fab, V domains shown, as the heavy chain of Sm3; light chain of Sm3 with this change; numbers count from the chain's first residue; source: Brevibacillus, culture supernatant (ammonium sulfate precipitate); not shown: 6xHis, C-terminal, kept; 6xHN, C-terminal, kept) VH: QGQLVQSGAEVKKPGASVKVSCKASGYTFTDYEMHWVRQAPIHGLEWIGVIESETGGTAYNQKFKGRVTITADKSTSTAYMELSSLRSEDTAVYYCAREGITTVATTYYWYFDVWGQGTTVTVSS VL: DVVMTQSPLSLPVTLGQPASISCRSSQSIVHSNGNTYLEWYLQKPGQSPQLLIYKVSNRFSGVPDRFSGSGSGTDFTLKISRVEAEDVGVYYCFQGSHPPLTFGQGTKLEIK", "endpoint_label": "Kd", "reported": "0.0198 µM"}
{"binder": "toripalimab Fab H.K63A (Fab, V domains shown, heavy chain of Sm3 with this change; numbers count from the chain's first residue; as the light chain of Sm3; source: Brevibacillus, culture supernatant (ammonium sulfate precipitate); not shown: 6xHis, C-terminal, kept; 6xHN, C-terminal, kept) VH: QGQLVQSGAEVKKPGASVKVSCKASGYTFTDYEMHWVRQAPIHGLEWIGVIESETGGTAYNQAFKGRVTITADKSTSTAYMELSSLRSEDTAVYYCAREGITTVATTYYWYFDVWGQGTTVTVSS VL: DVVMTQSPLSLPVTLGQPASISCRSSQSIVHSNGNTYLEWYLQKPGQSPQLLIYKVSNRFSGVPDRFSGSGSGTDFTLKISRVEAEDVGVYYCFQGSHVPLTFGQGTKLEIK", "endpoint_label": "Kd", "reported": "< 0.000248 µM"}
